Recorded melting point, one value per entry.

Worked set:
{"COMPOUND": "Cc1nc(S(=O)(=O)N2CCC(C(=O)O)CC2)cn1C", "melting point": "262 to 264 °C"}
{"COMPOUND": "NC(=S)NC1CCOc2ccccc21 (configuration not stated)", "melting point": "178 to 180 °C"}
{"COMPOUND": "CCNC(=O)COc1cccc(C(C)N)c1 (configuration not stated)", "melting point": "79 to 81 °C"}

input: I would be grateful if you could share the reported melting point for NNC(=O)c1ccc(Cl)c(S(N)(=O)=O)c1 .
output: 212 to 214 °C

====

MEASUREMENT_KIND: melting point

Worked set:
{"COMPOUND": "Nc1c(-c2ccccc2)nn(-c2ccccc2)c1N", "melting point": "89 to 91 °C"}
{"COMPOUND": "CS(=O)(=O)Cc1ccc(Cl)cc1S(=O)(=O)Cl", "melting point": "103 to 105 °C"}
{"COMPOUND": "Cc1n[nH]c(C)c1[N+](=O)[O-]", "melting point": "121 to 123 °C"}
{"COMPOUND": "CCOc1cccc(C=CC(=O)O)c1OC1CCCC1", "melting point": "133 to 135 °C"}
{"COMPOUND": "Clc1ccc(Cl)c(OCC2CO2)c1 (configuration not stated)", "melting point": "62 to 64 °C"}

input: I would be grateful if you could share the reported melting point for CCOCc1cc(C(=O)O)ccc1OC .
output: 142 to 146 °C

input: I would be grateful if you could share the reported melting point for CN(C)c1ccc(C(N)=O)cc1 .
output: 207 to 209 °C
